Test: Study M04-710 pharmacokinetics, multiple-dose escalation, non-hematologic malignancies
Format: in vivo, human
Settings: human, plasma, oral; Study Day 1; 10 mg (~0.20 mg/kg); mean ± SD
Endpoint name: clearance (mL/min)
Answer in mL/min, number only, no unit symbol.

Suppose we examine the molecule Cc1ccc(F)c(NC(=O)Nc2ccc(-c3cccc4[nH]nc(N)c34)cc2)c1 [ABT-869] ; what clearance value has been reported?
50

###

Assay: Study M04-710 pharmacokinetics, multiple-dose escalation, non-hematologic malignancies
Assay type: in vivo, human
Conditions: human, plasma, oral; Study Day 1; 0.25 mg/kg; mean ± SD
Endpoint name: clearance (mL/min)
Answer in mL/min, number only, no unit symbol.

Suppose we examine the compound Cc1ccc(F)c(NC(=O)Nc2ccc(-c3cccc4[nH]nc(N)c34)cc2)c1 ; what clearance value has been reported?
50
